B1: TMEM192 (parent)
chain: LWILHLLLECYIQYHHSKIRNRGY

# Variants of: B1
# PROCEDURE_TEXT: protein stability index of a GFP-peptide fusion (GPS, HEK-293T) (PSI 1-6); higher = more stable;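 further: lentivirally expressed fusions sorted by FACS into six bins by GFP to DsRed ratio, PSI derived from sequencing read proportions per bin multiplied by bin number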
# MEASUREMENT_SETUP: c terminus: a fixed tail appended
Recorded protein stability index by entry

[
  {
    "VARIANT_ANNOTATION": "S17P",
    "protein stability index": 2.26
  },
  {
    "VARIANT_ANNOTATION": "N21A",
    "protein stability index": 2.86
  },
  {
    "VARIANT_ANNOTATION": "I12D",
    "protein stability index": 1.5
  },
  {
    "VARIANT_ANNOTATION": "I19A",
    "protein stability index": 2.33
  },
  {
    "VARIANT_ANNOTATION": "Y24I",
    "protein stability index": 2.54
  },
  {
    "VARIANT_ANNOTATION": "G23A",
    "protein stability index": 2.48
  },
  {
    "VARIANT_ANNOTATION": "L7I",
    "protein stability index": 3.46
  },
  {
    "VARIANT_ANNOTATION": "K18S",
    "protein stability index": 3.8
  },
  {
    "VARIANT_ANNOTATION": "L4Y",
    "protein stability index": 2.68
  },
  {
    "VARIANT_ANNOTATION": "R20I",
    "protein stability index": 3.52
  },
  {
    "VARIANT_ANNOTATION": "Y24V",
    "protein stability index": 2.69
  },
  {
    "VARIANT_ANNOTATION": "L8K",
    "protein stability index": 2.54
  },
  {
    "VARIANT_ANNOTATION": "H16R",
    "protein stability index": 1.5
  },
  {
    "VARIANT_ANNOTATION": "L1T",
    "protein stability index": 3.75
  },
  {
    "VARIANT_ANNOTATION": "Y11T",
    "protein stability index": 2.21
  },
  {
    "VARIANT_ANNOTATION": "L4M",
    "protein stability index": 2.39
  },
  {
    "VARIANT_ANNOTATION": "E9R",
    "protein stability index": 2.99
  },
  {
    "VARIANT_ANNOTATION": "Y14Q",
    "protein stability index": 2
  },
  {
    "VARIANT_ANNOTATION": "R22F",
    "protein stability index": 2.93
  },
  {
    "VARIANT_ANNOTATION": "C10Q",
    "protein stability index": 1.95
  },
  {
    "VARIANT_ANNOTATION": "S17G",
    "protein stability index": 2.28
  },
  {
    "VARIANT_ANNOTATION": "L4T",
    "protein stability index": 1.17
  },
  {
    "VARIANT_ANNOTATION": "L8H",
    "protein stability index": 3.75
  },
  {
    "VARIANT_ANNOTATION": "H5T",
    "protein stability index": 2.61
  },
  {
    "VARIANT_ANNOTATION": "Y14I",
    "protein stability index": 1.79
  },
  {
    "VARIANT_ANNOTATION": "S17I",
    "protein stability index": 2.57
  },
  {
    "VARIANT_ANNOTATION": "K18G",
    "protein stability index": 2.69
  },
  {
    "VARIANT_ANNOTATION": "L1C",
    "protein stability index": 2.89
  },
  {
    "VARIANT_ANNOTATION": "H5G",
    "protein stability index": 1.48
  },
  {
    "VARIANT_ANNOTATION": "Y14K",
    "protein stability index": 2.01
  },
  {
    "VARIANT_ANNOTATION": "L6Y",
    "protein stability index": 1.8
  },
  {
    "VARIANT_ANNOTATION": "N21Y",
    "protein stability index": 2.6
  },
  {
    "VARIANT_ANNOTATION": "Y24T",
    "protein stability index": 1.12
  },
  {
    "VARIANT_ANNOTATION": "E9V",
    "protein stability index": 3.35
  },
  {
    "VARIANT_ANNOTATION": "I19W",
    "protein stability index": 1.88
  },
  {
    "VARIANT_ANNOTATION": "H15S",
    "protein stability index": 2.72
  },
  {
    "VARIANT_ANNOTATION": "W2Y",
    "protein stability index": 1.25
  },
  {
    "VARIANT_ANNOTATION": "C10D",
    "protein stability index": 2.63
  },
  {
    "VARIANT_ANNOTATION": "H16Q",
    "protein stability index": 2.43
  },
  {
    "VARIANT_ANNOTATION": "I12C",
    "protein stability index": 1.69
  },
  {
    "VARIANT_ANNOTATION": "G23Q",
    "protein stability index": 2.51
  },
  {
    "VARIANT_ANNOTATION": "I3M",
    "protein stability index": 1.35
  },
  {
    "VARIANT_ANNOTATION": "H15N",
    "protein stability index": 2.7
  },
  {
    "VARIANT_ANNOTATION": "Q13D",
    "protein stability index": 2.32
  },
  {
    "VARIANT_ANNOTATION": "L8P",
    "protein stability index": 2.11
  },
  {
    "VARIANT_ANNOTATION": "C10Y",
    "protein stability index": 2.2
  },
  {
    "VARIANT_ANNOTATION": "Y24N",
    "protein stability index": 2.44
  },
  {
    "VARIANT_ANNOTATION": "R20W",
    "protein stability index": 2.45
  },
  {
    "VARIANT_ANNOTATION": "L4I",
    "protein stability index": 2.29
  },
  {
    "VARIANT_ANNOTATION": "K18P",
    "protein stability index": 2.32
  },
  {
    "VARIANT_ANNOTATION": "L7C",
    "protein stability index": 2.32
  },
  {
    "VARIANT_ANNOTATION": "L6N",
    "protein stability index": 1.97
  },
  {
    "VARIANT_ANNOTATION": "I3T",
    "protein stability index": 2.34
  },
  {
    "VARIANT_ANNOTATION": "K18F",
    "protein stability index": 2.88
  },
  {
    "VARIANT_ANNOTATION": "L8I",
    "protein stability index": 3.28
  },
  {
    "VARIANT_ANNOTATION": "E9W",
    "protein stability index": 3.27
  },
  {
    "VARIANT_ANNOTATION": "H16C",
    "protein stability index": 2.41
  },
  {
    "VARIANT_ANNOTATION": "I19Q",
    "protein stability index": 1.55
  },
  {
    "VARIANT_ANNOTATION": "Y14P",
    "protein stability index": 2.67
  },
  {
    "VARIANT_ANNOTATION": "C10N",
    "protein stability index": 1.79
  },
  {
    "VARIANT_ANNOTATION": "R22V",
    "protein stability index": 1.17
  },
  {
    "VARIANT_ANNOTATION": "Q13P",
    "protein stability index": 3
  },
  {
    "VARIANT_ANNOTATION": "N21G",
    "protein stability index": 2.35
  },
  {
    "VARIANT_ANNOTATION": "K18N",
    "protein stability index": 3.08
  },
  {
    "VARIANT_ANNOTATION": "I19P",
    "protein stability index": 2.04
  },
  {
    "VARIANT_ANNOTATION": "G23F",
    "protein stability index": 1.38
  },
  {
    "VARIANT_ANNOTATION": "Q13I",
    "protein stability index": 2.75
  },
  {
    "VARIANT_ANNOTATION": "Y14G",
    "protein stability index": 1.41
  },
  {
    "VARIANT_ANNOTATION": "N21H",
    "protein stability index": 2.53
  },
  {
    "VARIANT_ANNOTATION": "R20H",
    "protein stability index": 2.63
  },
  {
    "VARIANT_ANNOTATION": "H16W",
    "protein stability index": 2.85
  },
  {
    "VARIANT_ANNOTATION": "G23N",
    "protein stability index": 1.79
  },
  {
    "VARIANT_ANNOTATION": "C10K",
    "protein stability index": 1.72
  },
  {
    "VARIANT_ANNOTATION": "I19V",
    "protein stability index": 2.01
  },
  {
    "VARIANT_ANNOTATION": "R20M",
    "protein stability index": 3.17
  },
  {
    "VARIANT_ANNOTATION": "Q13H",
    "protein stability index": 2.98
  },
  {
    "VARIANT_ANNOTATION": "G23P",
    "protein stability index": 3.17
  },
  {
    "VARIANT_ANNOTATION": "H15L",
    "protein stability index": 2.14
  },
  {
    "VARIANT_ANNOTATION": "R20Y",
    "protein stability index": 2.69
  },
  {
    "VARIANT_ANNOTATION": "H15Y",
    "protein stability index": 2.86
  },
  {
    "VARIANT_ANNOTATION": "H5E",
    "protein stability index": 2.26
  },
  {
    "VARIANT_ANNOTATION": "S17A",
    "protein stability index": 2.68
  },
  {
    "VARIANT_ANNOTATION": "Y14C",
    "protein stability index": 2.16
  }
]
